- Test System: UniProt P19020
- Sequence (P19020 whole entry): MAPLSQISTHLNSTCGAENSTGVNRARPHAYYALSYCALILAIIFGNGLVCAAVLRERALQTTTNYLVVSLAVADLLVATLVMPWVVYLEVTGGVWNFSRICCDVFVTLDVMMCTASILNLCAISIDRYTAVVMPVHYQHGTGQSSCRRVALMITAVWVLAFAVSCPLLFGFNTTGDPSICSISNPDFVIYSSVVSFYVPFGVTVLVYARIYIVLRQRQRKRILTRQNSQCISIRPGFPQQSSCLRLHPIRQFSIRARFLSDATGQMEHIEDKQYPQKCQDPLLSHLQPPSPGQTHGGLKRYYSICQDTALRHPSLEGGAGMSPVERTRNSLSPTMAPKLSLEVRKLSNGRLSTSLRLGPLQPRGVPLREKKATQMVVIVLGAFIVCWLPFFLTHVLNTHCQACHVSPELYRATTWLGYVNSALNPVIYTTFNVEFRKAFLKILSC
pKi: −log10 of the molar value. Counter-ions that a name gives are not always drawn.
Please mark t if the recorded pKi is equal to or greater than 8, and f if it falls below.

Example results:
INSERT INTO measurements (compound, class_name) VALUES
  ('C=CCN1Cc2c(C)ccc3c2[C@@H](C1)c1ccc(O)c(O)c1C3 (racemic) [Dinapsoline,(+/-)-4-Methyl-N-allyl]', 't'),
  ('Cc1ccc2c3c1Cc1c(ccc(O)c1O)[C@@H]3CNC2 (racemic) [Dinapsoline,(+/-)-6-Methyl]', 'f'),
  ('CCCN1Cc2c(C)cccc2[C@H]2c3cc(O)c(O)cc3CC[C@@H]21 [Dihydrexidine, 4-methyl-N-propyl]', 't');

Q: Given CCCN1Cc2c(C)ccc3c2[C@@H](C1)c1ccc(O)c(O)c1C3 (racemic) [Dinapsoline,(+/-)-4-Methyl-N-propyl] , state whether its pKi is at least 8.
Result: t

Q: Given CCCN1Cc2cccc3c2[C@@H](C1)c1ccc(O)c(O)c1C3 (racemic) [(+/-)-2-propyldinapsoline hydrobromide] , state whether its pKi is at least 8.
Result: t

Q: Given Cc1cccc2c1CN[C@H]1CCc3cc(O)c(O)cc3[C@H]21 [Dihydrexidine, 4-methyl] , state whether its pKi is at least 8.
Result: f

Q: Given Cc1ccc2c3c1CNC[C@H]3c1ccc(O)c(O)c1C2 (racemic) [Dinapsoline,(+/-)-4-Methyl] , state whether its pKi is at least 8.
Result: f

Data credit: BindingDB's records for doi:10.1016/S0968-0896(02)00561-8
